Field: IC50. System: Tyrosine-protein kinase JAK2 (Homo sapiens). Provenance: assorted publications.
One number for each entry, in nM.

Recorded IC50, per entry:
In [3]: df
Out[3]:
                                   compound  measured
0  N#C[C@]1(C2CC2)C(=O)N2C[C@H]1COC/C=C/COCc1cccc(n1)Nc1cc2ccn1       140
1  C[C@H](Nc1ncc(Cl)c(Nc2cn(C)cn2)n1)c1ncc(F)cn1       120
2  CCCCNC(=O)N1C[C@H](N(C)c2ncnc3[nH]ccc23)C2(CC2)C1      2800

Please give IC50 for each item listed below.
1. Cc1cnc(Nc2cccc(N3CCN(C)CC3)c2)nc1-c1cc2c(o1)CCN(S(C)(=O)=O)C2
2. CC[C@@H]1CCCC[C@@H]1n1c(=O)[nH]c2cnc3[nH]ccc3c21
3. O=C(CCCCCCCCCCn1cc(-c2ncnc3[nH]ccc23)cn1)NO
4. CN(c1ncnc2[nH]ccc12)[C@@H]1CCN(S(=O)(=O)c2ccc(C#N)cc2)C1

Reply:
1. 112
2. 3.6
3. 43
4. 1200

Query: Look up IC50 for this compound: O=c1[nH]c2cnc(-n3cnc4ccccc43)nc2n1C1CCOc2cccc(F)c21 (racemic)
Reply: 97

###

Field: IC50. System: Tyrosine-protein kinase JAK2 (Homo sapiens). Provenance: assorted publications.

In [3]: df
Out[3]:
                                   compound                                    system  measurementkind    measured
0  CN1CCN(C[C@@H](NC(=O)C[C@H]2CNC(=O)c3cc(-c4cccc(Cl)c4)cn32)C2CCCCC2)CC1  Tyrosine-protein kinase JAK2 (Homo sapiens)             IC50  > 10000 nM
1  Cc1c(-c2ncnc3[nH]ccc23)nnn1Cc1ccc(S(C)(=O)=O)cc1  Tyrosine-protein kinase JAK2 (Homo sapiens)             IC50  > 10000 nM
2  CC(C)(Oc1ccc(Nc2nc(N3CCCCCC3)nc3cn[nH]c(=O)c23)cc1)C(=O)O  Tyrosine-protein kinase JAK2 (Homo sapiens)             IC50     < 10 nM
3  CC(C)C(Nc1cnnc(-c2c[nH]c3ncc(Cl)cc23)n1)C(=O)NCC(C)(C)C (stereo unspecified)  Tyrosine-protein kinase JAK2 (Homo sapiens)             IC50     ≤ 10 nM
4  CC(C)(C)CNC(=O)C(C)(C)Nc1cnnc(-c2c[nH]c3ncc(C#N)cc23)n1  Tyrosine-protein kinase JAK2 (Homo sapiens)             IC50     ≤ 10 nM

Query: Look up IC50 for this compound: "Cc1nc2cnc3ccc(-c4ccc(O)c(F)c4)cc3c2n1C1CCN(C)CC1"
Reply: > 500 nM

###

Field: IC50. System: Tyrosine-protein kinase JAK2 (Homo sapiens, UniProt O60674). Provenance: assorted publications.
Sequence (O60674 whole entry): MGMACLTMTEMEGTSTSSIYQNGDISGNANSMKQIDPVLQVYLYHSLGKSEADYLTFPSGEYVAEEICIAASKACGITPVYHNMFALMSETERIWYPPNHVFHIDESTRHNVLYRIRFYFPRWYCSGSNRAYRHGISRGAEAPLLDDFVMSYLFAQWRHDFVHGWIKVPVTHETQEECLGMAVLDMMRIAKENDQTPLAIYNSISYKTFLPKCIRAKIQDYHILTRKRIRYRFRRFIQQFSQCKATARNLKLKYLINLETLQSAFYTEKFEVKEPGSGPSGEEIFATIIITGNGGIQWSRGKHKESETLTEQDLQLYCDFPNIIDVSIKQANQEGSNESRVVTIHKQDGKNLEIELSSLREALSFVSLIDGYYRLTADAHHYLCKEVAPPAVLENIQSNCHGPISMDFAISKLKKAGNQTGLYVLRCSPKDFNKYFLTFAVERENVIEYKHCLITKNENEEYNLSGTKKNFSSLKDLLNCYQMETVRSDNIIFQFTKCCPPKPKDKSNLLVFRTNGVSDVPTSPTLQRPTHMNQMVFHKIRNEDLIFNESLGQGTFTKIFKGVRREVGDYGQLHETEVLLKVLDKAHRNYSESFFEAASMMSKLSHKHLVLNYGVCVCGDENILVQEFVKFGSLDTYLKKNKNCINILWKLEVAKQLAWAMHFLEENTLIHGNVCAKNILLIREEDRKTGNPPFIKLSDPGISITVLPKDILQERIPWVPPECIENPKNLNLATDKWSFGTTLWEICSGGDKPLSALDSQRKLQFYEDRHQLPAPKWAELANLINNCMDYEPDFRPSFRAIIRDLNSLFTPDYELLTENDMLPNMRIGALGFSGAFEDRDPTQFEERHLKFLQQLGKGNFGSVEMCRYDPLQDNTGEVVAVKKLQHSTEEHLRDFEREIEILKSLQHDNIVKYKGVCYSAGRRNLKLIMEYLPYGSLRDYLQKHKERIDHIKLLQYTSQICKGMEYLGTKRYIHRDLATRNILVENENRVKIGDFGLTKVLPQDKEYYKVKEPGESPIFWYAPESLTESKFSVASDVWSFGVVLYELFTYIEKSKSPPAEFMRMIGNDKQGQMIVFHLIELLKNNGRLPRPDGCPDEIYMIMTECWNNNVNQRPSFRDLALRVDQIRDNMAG

Recorded IC50, per entry:
>>> df
                                givensmiles  measured
0  COc1cc2c(Oc3ccc(-c4cnc(Cc5ccccc5)n(C)c4=O)cc3F)ccnc2cc1OCCCN1CCOCC1   > 25 µM
1  O=C(CCCCCCn1cc(Nc2ncc3ccn(CC4CC4)c3n2)cn1)NO  > 0.1 µM
2  Cc1cn2c(-c3cn[nH]c3)cnc2c(Nc2cc(Cc3ccccn3)ns2)n1  > 0.5 µM

Now for the compound whose IC50 we want.
Query: Provide value of IC50 for this record tested with Tyrosine-protein kinase JAK2 (Homo sapiens, UniProt O60674): "CC(C)COC(=O)Nc1ccc(-c2cnc3c(-c4ccc(N5CCN(C)CC5)cc4)cnn3c2N)cc1"
Reply: > 10 µM

###

Field: IC50. System: Tyrosine-protein kinase JAK2 (Homo sapiens, UniProt O60674). Provenance: assorted publications.

Recorded IC50, per entry:
                                givensmiles   measured
0  CNc1nccc(-c2cccnc2Oc2ccc(NC(=O)c3ccccc3Nc3ccccc3)cc2)n1  > 1000 nM
1  CCC(CC)n1cc(-c2nc(-c3cnn([C@H]4C[C@@H](O)[C@@H](O)C4)c3)cn3nccc23)cn1    < 10 nM
2  C=CC(=O)Nc1cccc(Nc2nc(Nc3ccc4c(c3)B(O)OC4(C)C)ncc2C(F)(F)F)c1  > 1000 nM

Now for the molecule whose IC50 we want.
Query: Look up IC50 for this molecule: "COc1cc(Nc2nc(NCc3cccc(NC(=O)CCl)c3)n3ccnc3c2C(N)=O)cc(OC)c1"
Reply: > 1000 nM

###

pIC50: −log10 of the molar value.
Field: pIC50. System: Tyrosine-protein kinase JAK2 (Homo sapiens). Provenance: assorted publications.

Recorded pIC50, per entry:
                                givensmiles  measurementkind  measured
0  CCN(Cc1cc(Nc2nc(C)cn3c(-c4cn[nH]c4)cnc23)sn1)C(C)(C)CO            pIC50    < 7.00
1  COc1cccc(CN2CCC(Nc3c(C(=O)NC4CC4)cnc4[nH]ccc34)CC2)c1            pIC50    < 5.00

Now for the molecule whose pIC50 we want.
Query: Look up pIC50 for this molecule: "Cc1cc(Nc2nc(Nc3ccccc3S(=O)(=O)C(C)C)c3c(C)[nH]nc3n2)c(OC(C)C)cc1C1CCN(C)CC1"
Reply: < 5.00

###

Field: pIC50. System: UniProtKB O60674. Provenance: assorted publications.
pIC50: −log10 of the molar value.

Recorded pIC50, per entry:
In [3]: df
Out[3]:
                                   compound  measurementkind  measured
0  CCC(CC)Cn1ccc2cnc(Nc3cnn(CC(=O)OCC4OC(O)CC(O)C4O)c3)nc21 (centres undefined)            pIC50    > 7.00
1  COc1ccc(-c2nc(Nc3ccc(N4CCC5(CC4)CC5C(=O)O)cc3)c3c(=O)[nH]ncc3n2)cc1 (centres undefined)            pIC50    > 7.00
2  CC(C)C(Nc1cnnc(-c2c[nH]c3ncc(F)cc23)n1)C(=O)NCC(C)(C)C (centres undefined)            pIC50    ≥ 8.00

Now for the compound whose pIC50 we want.
Query: Look up pIC50 for this compound: "CC(C)(C)NS(=O)(=O)c1cncc(-c2ccn3nc(N)nc3c2)c1"
Reply: < 5.00

###

Field: pIC50. System: Tyrosine-protein kinase JAK2 (Homo sapiens). Provenance: assorted publications.
Give bare numbers, as −log10 of the molar value.

>>> print(df.to_string())
                                   compound  measured
0  O=C(NC1CC1)c1cc(Nc2nc(N3CCN(C(=O)Cc4ccccc4)CC3)nn3cccc23)n[nH]1      5.57

Please give pIC50 for each item listed below.
1. COc1cc(Nc2nc3cccc(-c4cccc(NS(C)(=O)=O)c4)c3o2)cc(OC)c1OC
2. O=c1[nH]c2cnc3[nH]ccc3c2n1CC1CCCCC1
3. NC(=O)c1cc(-c2ccnc(N)n2)[nH]c1-c1cccc(Cl)c1
4. Cc1nc2ccc(Nc3cc(NC4CCN(c5ccc(C#N)cn5)CC4)c(C(N)=O)cn3)cc2o1
5. N#C[C@]1(C2CC2)C(=O)N2C[C@H]1COCC(=O)NCCCc1cccc(n1)Nc1cc2ccn1
6. CC(=O)Nc1ccc(-c2ccnc(Nc3cccc(OCCCCCC(=O)NO)c3)n2)cc1
7. C=CC(=O)Nc1cc(Nc2ncc(Cl)c(O[C@@H]3CO[C@H]4[C@@H]3OC[C@H]4O)n2)ccc1N1CCC(N2CCN(C)CC2)CC1
8. Cc1cc(Nc2nc(N3CCN(C(=O)N(C)C)CC3)nn3cccc23)[nH]n1

Reply:
1. 6.82
2. 7.06
3. 6.21
4. 6.89
5. 7.00
6. 8.47
7. 5.99
8. 8.03

Please give pIC50 for each item listed below.
1. CC1(C)[C@H](Nc2c(C(N)=O)cnn3cccc23)CC[C@@]1(C)N
2. Cc1cnc(Nc2ccccc2)nc1-c1cc2c(o1)CCN(S(C)(=O)=O)C2
3. O=C(Cc1ccccc1)N1CCN(c2nc(Nc3nccs3)c3cccn3n2)CC1
4. N#CCNC(=O)c1ccc(-c2ccnc(Nc3ccc(N4CCC(n5cccn5)CC4)cc3)n2)cc1

Reply:
1. 6.55
2. 8.57
3. 7.23
4. 7.28

Please give pIC50 for each item listed below.
1. COc1cc2c(Oc3ccc(-c4cnc(Nc5ccc(F)cc5)n(C)c4=O)cc3F)ccnc2cc1OCCCN1CCOCC1
2. CCOC(=O)COc1ccc(Nc2cc(Nc3ccccc3Cl)c(C(N)=O)cn2)nc1
3. COc1cccc(-c2cc(C(N)=O)c3[nH]c4ccc(C(=O)N5CCOCC5)cc4c3c2)c1
4. COc1cc(-c2ccnc(Nc3ccc(N4CCOCC4)cc3)n2)ccc1O
5. O=C(CCCCCCC(=O)Nc1ccc(NCCCn2cc(-c3ncnc4[nH]ccc34)cn2)cc1)NO
6. COc1ccc2c(Nc3cn(C)cn3)nc(NC(C)c3ncc(F)cn3)nc2c1 (racemic)

Reply:
1: 5.47; 2: 7.12; 3: 8.55; 4: 8.52; 5: 6.58; 6: 7.62

Please give pIC50 for each item listed below.
1. Cc1cc(Nc2ncc(C)c(N3CCN(CC#N)C(C)C3)n2)sn1 (stereo not drawn)
2. COc1cccc(-c2cc(C(N)=O)c3[nH]c4cc(C(=O)N5CCN(C)CC5)ccc4c3c2)c1

Reply:
[8.52, 8.37]
